# studySystem: T1, PTPRG, endogenous in H929 multiple myeloma cells (human, UniProt P23470 20-1445)
# T1 construct: Native protein on H929 cells (flow cytometry, siRNA knockdown) and in H929 lysates (IP/MS); also called phosphatase receptor type γ
# T1 sequence (P23470 20-1445 limits assumed): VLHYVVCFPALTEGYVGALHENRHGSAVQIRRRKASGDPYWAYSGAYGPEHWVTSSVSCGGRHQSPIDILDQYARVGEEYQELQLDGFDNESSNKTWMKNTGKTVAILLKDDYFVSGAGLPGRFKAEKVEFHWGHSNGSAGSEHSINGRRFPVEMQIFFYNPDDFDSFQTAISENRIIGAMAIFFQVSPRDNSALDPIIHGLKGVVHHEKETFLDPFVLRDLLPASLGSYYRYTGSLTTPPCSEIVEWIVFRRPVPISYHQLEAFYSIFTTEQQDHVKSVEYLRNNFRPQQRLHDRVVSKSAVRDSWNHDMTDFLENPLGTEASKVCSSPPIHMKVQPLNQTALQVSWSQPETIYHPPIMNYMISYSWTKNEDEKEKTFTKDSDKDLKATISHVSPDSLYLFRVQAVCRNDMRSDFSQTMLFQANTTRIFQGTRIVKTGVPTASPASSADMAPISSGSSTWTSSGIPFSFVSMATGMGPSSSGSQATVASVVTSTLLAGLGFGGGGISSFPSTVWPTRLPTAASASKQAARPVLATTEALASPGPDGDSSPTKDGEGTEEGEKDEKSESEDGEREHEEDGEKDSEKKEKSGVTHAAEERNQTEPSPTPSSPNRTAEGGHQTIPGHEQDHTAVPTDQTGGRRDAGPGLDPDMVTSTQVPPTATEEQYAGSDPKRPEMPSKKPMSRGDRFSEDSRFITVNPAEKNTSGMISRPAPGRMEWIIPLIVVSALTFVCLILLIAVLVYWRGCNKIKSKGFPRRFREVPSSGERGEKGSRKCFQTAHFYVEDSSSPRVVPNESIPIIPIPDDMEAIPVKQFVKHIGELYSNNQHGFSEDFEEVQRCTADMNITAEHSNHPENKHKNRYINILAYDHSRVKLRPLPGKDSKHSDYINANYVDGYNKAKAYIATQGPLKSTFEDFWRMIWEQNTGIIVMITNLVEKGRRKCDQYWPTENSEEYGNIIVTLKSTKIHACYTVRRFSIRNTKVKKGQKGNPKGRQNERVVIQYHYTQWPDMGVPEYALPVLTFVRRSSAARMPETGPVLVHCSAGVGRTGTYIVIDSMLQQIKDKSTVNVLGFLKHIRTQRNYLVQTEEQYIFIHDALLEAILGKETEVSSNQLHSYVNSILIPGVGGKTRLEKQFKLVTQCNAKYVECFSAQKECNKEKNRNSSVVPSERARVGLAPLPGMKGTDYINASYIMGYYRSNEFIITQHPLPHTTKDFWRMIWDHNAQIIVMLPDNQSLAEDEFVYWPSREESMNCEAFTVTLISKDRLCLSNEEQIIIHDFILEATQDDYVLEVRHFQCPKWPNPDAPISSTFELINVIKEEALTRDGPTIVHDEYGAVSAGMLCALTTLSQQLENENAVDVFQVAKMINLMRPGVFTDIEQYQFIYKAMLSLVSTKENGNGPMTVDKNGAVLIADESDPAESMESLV
# testMethodNotes: flow cytometry, IgG1 on H929 cells
valueType: antibody-bound positive cells (%)
Give bare numbers, in %.

Input line: // returns reported antibody-bound positive cells (%) for input TH9-0022 (antibody, human IgG1, kappa, L234A L235A, V domains shown, also called TH9-022; negative control IgG1) VH: QSLEESGGRLVTPGTPLTLTCTVSGFSLSSYAMNWVRQAPGKGLEWIGIINSYGSTYYASWAKGRFTISKTSTTVDLKITSPTTEDTATYFCARVTYDSYGYGYAPYGMDLWGPGTLVTVSS VL: LVMTQTPSSTSNAVGGTVTIKCQASQSIGNVLAWYQQKPGQPPKLLIYAASTLASGVPSRVGGSRSGTEYTLTISGVQREDAATYYCLGSDSDSDIAFGGGTELEILR
Output line: 2.7
